System: Botulinum neurotoxin type F light chain protease (Clostridium botulinum)
assayName: Botulinum neurotoxin type F light chain protease inhibition, multiplex microsphere flow cytometry, validation set (AID 588459)
protocolConditions: multiplex microsphere protease substrate cleavage assay, at 10 µM, active compounds read high
The source made the active and inactive calls. How the calls were made is not given here.
readoutType: inhibition

Example cases with answers are listed next.
> print(dat)
                                   compound                           systemundertest  readouttype               val
1  COc1ccc([C@H]2[C@H](C(=O)OC(C)(C)C)N3N=Cc4ccccc4C3C23C(=O)c2ccccc2C3=O)cc1OC (some centres undefined)  Botulinum neurotoxin type F light chain protease (Clostridium botulinum)   inhibition  -0.2% (inactive)
2  CN1CCc2c(n(CC(O)CN(CCO)CCO)c3ccccc23)C1=O (centres undefined)  Botulinum neurotoxin type F light chain protease (Clostridium botulinum)   inhibition  -0.1% (inactive)
3  Cc1ccc(S(=O)(=O)Nc2ccc(S(=O)(=O)Nc3cc(C)nc(C)n3)cc2)cc1  Botulinum neurotoxin type F light chain protease (Clostridium botulinum)   inhibition  -1.8% (inactive)

Which inhibition is reported for this compound? CCOC(=O)C1C2C=CC3(CN(c4ccc(Cl)c(F)c4)C(=O)C13)O2 (centres undefined)
2.9% (inactive)

The measurements presented in this section are drawn from PubChem BioAssay.
